The entries below are paired with their reported growth.
Test system: SF-539 CNS
ASSAY EXPLANATION: NCI-60 one-dose screen, 48 h (100 = growth as untreated, 0 = no growth, -100 = all killed)
EXPERIMENTAL SETUP: 10 µM unless noted
Compounds without any hit were thinned out: in the full panel of roughly 83,000, 20% have a hit. Active and inactive are the calls of the source. Rule for the calls: active = growth percent below 10; inactive = the rest.

Below, each entry is followed by its recorded growth result.
COc1ccc(-c2cn3c(C(=O)Nc4ccccc4Cl)c(-c4ccccc4)c4c3n2CCCC4)cc1 :: 87% (inactive)
CC/C=C\C[C@H](O)C/C=C1/C(=O)C=C[C@@H]1C/C=C\CCCC(=O)OCCS(=O)(=O)c1ccccc1 :: 59.9% (inactive)
O=C(CSc1ncccc1C(=O)O)Nc1ccc(Oc2ccccc2)cc1 :: 106% (inactive)

Give the reported value of growth for this record: "O=c1c2cc(F)ccc2sc2c(Nc3ccncc3)nc3ccccc3c12" 70.8% (inactive)

Return value of growth for input "O=c1c(-c2nc3ccccc3[nH]2)cc2ccccc2n1Cc1cn(Cc2ccccc2Cl)nn1" , no commentary. 4.13% (active)

Please indicate growth recorded for "O=C(Nc1ccc(N2CCNCC2)cc1)c1[nH]ncc1Nc1cc(C2CC2)ncn1" 46.1% (inactive)

---

Test system: A498 renal
ASSAY EXPLANATION: NCI-60 one-dose screen, 48 h
EXPERIMENTAL SETUP: 10 µM unless noted
About 83,000 compounds went through this panel and 20% of them were active in at least one assay; those are over-represented in the sample as a whole. Activity calls are given as the source filed them. Rule for the calls: active = growth percent below 10; inactive = the rest.
Pick one: t for active, f for inactive

O=C(NN1C(=O)CSC1c1ccc(Cl)cc1)c1[nH]c2ccc(F)cc2c1-c1ccccc1 (stereo not given) :: f
CCOc1cc(Cl)c(C(C)NC(=O)c2cccc(OC)c2)cc1OCC (stereo not given) :: f
CSc1nc2c(c(=O)[nH]1)N=C1c3ccccc3C(=O)C1C(c1ccc(F)cc1)N2 (stereo not given) :: f
COC(=O)c1ccc(NC(=O)CSc2nc3ccccc3c(=O)n2-c2ccccc2)cc1 :: f
Clc1ccc(Nc2scc3[n+]2CCC3)cc1 :: f

Recorded test outcome, item "O=c1c(-c2nc3ccccc3[nH]2)cc2ccccc2n1Cc1cn(Cc2ccc(F)cc2)nn1" t

Recorded test outcome, item "O=C(Cn1cc(COc2ncnc3c2cnn3-c2ccccc2)nn1)Nc1cccc2ccccc12" f

Outcome? COc1ccc(C(O)(CCC(C)C)C(CN2CCOCC2)c2ccc(Cl)cc2)cc1 (stereo not given) f

I'd appreciate the recorded outcome for "COc1ccc(CCN2C(=O)CCSC2=S)cc1" from this test. f

Can you look up the reported call for "O=c1oc2ccc(Br)cc2c(=O)n1-c1ccc(Cl)cc1F" for me? t

---

Tested on: SK-MEL-28 melanoma
ASSAY EXPLANATION: NCI-60 one-dose screen, 48 h (100 = growth as untreated, 0 = no growth, -100 = all killed)
EXPERIMENTAL SETUP: 10 µM
This is part of a sample that, as a whole, favours compounds with a hit. Of some 83,000 tested, about 20% had one in any assay.
Field 'label' (enum: 1 (yes) / 0 (no)). Set to 1 (yes) when growth is strictly under 60%; else 0 (no).

NNC(=O)CNC(=O)Nc1n[nH]c(=S)s1 :: 0 (no)
COc1ccc(-c2nsc3c2NC(=O)CC3c2ccsc2)cc1 (stereo not given) :: 1 (yes)
COc1cc(/C=C/C(=O)N2c3ccccc3CC2C)c(OC)c2c1OCO2 (stereo not given) :: 0 (no)
Oc1ccc(-c2nc(-c3ccc4oc5ccc(-c6[nH]c(-c7ccc(O)cc7)nc6-c6ccccc6)cc5c4c3)c(-c3ccccc3)[nH]2)cc1 :: 0 (no)
O=C(Nc1ccc(-c2nc3ccc(NC(=O)c4ccc(Cl)cc4)cc3[nH]2)cc1)c1ccc(Cl)cc1 :: 1 (yes)

Hi there! Is growth for "COc1ccccc1C1=C(Br)C(=O)c2nc(C)ccc2C1=O" below 60%, do you know? 0 (no)

Please check: growth for O=C(c1nc2ccccc2[nH]1)C1[C@@H](c2cccc(O)c2)C2CC3CCCCC3N2[C@@]12C(=O)Nc1cc(Cl)ccc12 (stereo not given in full) , strictly under 60% or not? 1 (yes)

Below 60% on growth? Entry "COc1ccc(/C=C/C(=O)c2ccc(Nc3nc(NCCO)nc(Nc4ccc(Cl)cc4)n3)cc2)cc1" 0 (no)

Does this molecule meet the criterion growth < 60%? Oc1c(C(Nc2ccccn2)c2cccc(Oc3ccccc3)c2)ccc2cccnc12 (stereo not given) 1 (yes)

Each recorded value in this set is attributed to PubChem BioAssay (NCI).
